Measured values drawn from PubChem BioAssay (EPA / NIEHS) for this set.

# METHOD_NOTES: BSK_4H_Eotaxin3: BioMAP Diversity Plus: 4H Assay for Eotaxin 3 Biomarker Activity (AID 2283000)
# EXPERIMENTAL_CONTEXT: primary human endothelial cells (HUVEC); actives raise or lower the signal
The source made the active and inactive calls. The calls were made as follows: active = hit-call score of the fitted dose curve at least 0.9, where 1 is the maximum; inactive = score below 0.9.
# output must be one of active, inactive

# fetch the recorded call for COP(=O)(OC)OC=C(Cl)Cl here
inactive

# fetch the recorded call for CNC(=O)Oc1ccccc1OC(C)C here
inactive

# fetch the recorded call for CC(C)OC(=O)Nc1cccc(Cl)c1 here
inactive

# fetch the recorded call for C[C@H]1[C@H](c2ccc(Cl)cc2)SC(=O)N1C(=O)NC1CCCCC1 here
inactive

# fetch the recorded call for CCc1ccc(C(=O)NN(C(=O)c2cc(C)cc(C)c2)C(C)(C)C)cc1 here
inactive

# fetch the recorded call for Clc1ccccc1-c1nnc(-c2ccccc2Cl)nn1 here
inactive

# fetch the recorded call for CC(C)N(C(=O)COc1nnc(C(F)(F)F)s1)c1ccc(F)cc1 here
inactive

# fetch the recorded call for CC(C)(C)C(O)/C(=C\c1ccc(Cl)cc1Cl)n1cncn1 (stereo unspecified) here
active

# fetch the recorded call for CC[C@H](C)[C@H]1O[C@]2(C=C[C@@H]1C)C[C@@H]1C[C@@H](C/C=C(\C)[C@@H](O[C@H]3C[C@H](OC)[C@@H](O[C@H]4C[C@H](OC)[C@@H](O)[C@H](C)O4)[C@H](C)O3)[C@@H](C)/C=C/C=C3\CO[C@@H]4[C@H](O)C(C)=C[C@@H](C(=O)O1)[C@]34O)O2 (tested in a mixture with another compound) here
active

# fetch the recorded call for CCOc1nc(NC)nc(NC(=O)NS(=O)(=O)c2ccccc2C(=O)OC)n1 here
inactive

# fetch the recorded call for O=C(NC(=O)c1c(F)cccc1F)Nc1ccc(OC(F)(F)C(F)OC(F)(F)F)c(Cl)c1 (stereo unspecified) here
inactive

# fetch the recorded call for CCCN(CCOc1c(Cl)cc(Cl)cc1Cl)C(=O)n1ccnc1 here
inactive

# fetch the recorded call for O=S1OCC2C(CO1)C1(Cl)C(Cl)=C(Cl)C2(Cl)C1(Cl)Cl (stereo unspecified) here
active

# fetch the recorded call for N#Cc1c(Cl)c(Cl)c(Cl)c(C#N)c1Cl here
active

# fetch the recorded call for CCN(CC)C(=O)SCc1ccc(Cl)cc1 here
inactive

# fetch the recorded call for COc1nn(CSP(=S)(OC)OC)c(=O)s1 here
inactive

# fetch the recorded call for O=C(O)C(F)(F)C(F)(F)C(F)(F)C(F)(F)C(F)(F)C(F)(F)C(F)(F)F here
inactive

# fetch the recorded call for O=C1c2ccccc2C(=O)N1SC(Cl)(Cl)Cl here
inactive

# fetch the recorded call for CCC(C)Nc1c([N+](=O)[O-])cc(C(C)(C)C)cc1[N+](=O)[O-] (stereo unspecified) here
inactive

# fetch the recorded call for COC(=O)c1ccccc1S(=O)(=O)NC(=O)N(C)c1nc(C)nc(OC)n1 here
inactive

# fetch the recorded call for Oc1cc(Cl)ccc1Oc1ccc(Cl)cc1Cl here
active

# fetch the recorded call for O=[N+]([O-])c1c(Cl)c(Cl)c(Cl)c(Cl)c1Cl here
inactive

# fetch the recorded call for Cc1[nH]c(=O)n(C(C)(C)C)c(=O)c1Cl here
active

# fetch the recorded call for CCOC1Oc2ccc(OS(C)(=O)=O)cc2C1(C)C (stereo unspecified) here
inactive

# fetch the recorded call for CC1(c2ccc(Oc3ccccc3)cc2)OC(=O)N(Nc2ccccc2)C1=O (stereo unspecified) here
active

# fetch the recorded call for COP(=S)(OC)Oc1ccc(SC)c(C)c1 here
inactive

# fetch the recorded call for [2H]C1([2H])[n+]2ccccc2-c2cccc[n+]2C1([2H])[2H] here
inactive

# fetch the recorded call for Oc1ccc(Cl)cc1Cc1ccccc1 here
active

# fetch the recorded call for CN1CSC(=S)N(C)C1 here
active

# fetch the recorded call for Cc1cc(C)nc(NC(=O)NS(=O)(=O)c2ccccc2C(=O)OC2COC2)n1 here
inactive

# fetch the recorded call for O=C(Nc1ccccc1)Nc1cnns1 here
inactive
